Test system: hTERT-HMEC;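 note: secreted proteins added to cultured cells, EdU pulse at the end, nuclei found by Hoechst imaging, EdU status from nuclear versus surrounding ring intensity ratio, PBS as neutral control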
procedure_summary: percentage of EdU-negative (G0-arrested) nuclei per well, 72 h; higher = more G0 arrest
measurement_context: protein concentration 0.0225 µM; reference: sequence is the full UniProt precursor, the tested protein was the secreted form or ectodomain
attribute_measured: percentage of EdU-negative (%)
Give bare numbers, in %.

MQLTRCCFVFLVQGSLYLVICGQDDGPPGSEDPERDDHEGQPRPRVPRKRGHISPKSRPMANSTLLGLLAPPGEAWGILGQPPNRPNHSPPPSAKVKKIFGWGDFYSNIKTVALNLLVTGKIVDHGNGTFSVHFQHNATGQGNISISLVPPSKAVEFHQEQQIFIEAKASKIFNCRMEWEKVERGRRTSLCTHDPAKICSRDHAQSSATWSCSQPFKVVCVYIAFYSTDYRLVQKVCPDYNYHSDTPYYPSG
6.5
MPGRSCVALVLLAAAVSCAVAQHAPPWTEDCRKSTYPPSGPTYRGAVPWYTINLDLPPYKRWHELMLDKAPVLKVIVNSLKNMINTFVPSGKIMQVVDEKLPGLLGNFPGPFEEEMKGIAAVTDIPLGEIISFNIFYELFTICTSIVAEDKKGHLIHGRNMDFGVFLGWNINNDTWVITEQLKPLTVNLDFQRNNKTVFKASSFAGYVGMLTGFKPGLFSLTLNERFSINGGYLGILEWILGKKDVMWIGFLTRTVLENSTSYEEAKNLLTKTKILAPAYFILGGNQSGEGCVITRDRKESLDVYELDAKQGRWYVVQTNYDRWKHPFFLDDRRTPAKMCLNRTSQENISFETMYDVLSTKPVLNKLTVYTTLIDVTKGQFETYLRDCPDPCIGW
4.75

(Q) I'd like to know its percentage of EdU-negative. The sequence in question is MSMSPTVIILACLGFFLDQSVWAHVGGQDKPFCSAWPSAVVPQGGHVTLRCHYRRGFNIFTLYKKDGVPVPELYNRIFWNSFLISPVTPAHAGTYRCRGFHPHSPTEWSAPSNPLVIMVTGLYEKPSLTARPGPTVRAGENVTLSCSSQSSFDIYHLSREGEAHELRLPAVPSINGTFQADFPLGPATHGETYRCFGSFHGSPYEWSDPSDPLPVSVTGNPSSSWPSPTEPSFKTGIARHLHAVIRYSVAIILFTILPFFLLHRWCSKKKDAAVMNQEPAGHRTVNREDSDEQDPQEVTYAQLDHCIFTQRKITGPSQRSKRPSTDTSVCIELPNAEPRALSPAHEHHSQALMGSSRETTALSQTQLASSNVPAAGI
(A) 5.29
